Assay: LC/MS detection of tigecycline metabolites in CD-1 mouse serum and urine after intravenous tigecycline
Details: mouse, in vivo, iv, 5 mg/kg
Measurement Label: observed in mouse urine by LC/MS

[Q] Name the recorded observed in mouse urine by LC/MS for CN(C)c1cc(N)c(O)c2c1C[C@H]1C[C@H]3[C@H](N(C)C)C(=O)C(C(N)=O)=C(O)[C@@]3(O)C(=O)C1=C2O [Metabolite M3, 9-aminominocycline] .
[A] detected

[Q] Name the recorded observed in mouse urine by LC/MS for CN(C)c1cc(NC(=O)CNC(C)(C)C)c(O)c2c1C[C@H]1C[C@H]3[C@@H](N(C)C)C(O[C@@H]4O[C@H](C(=O)O)[C@@H](O)[C@H](O)[C@H]4O)=C(C(N)=O)C(=O)[C@@]3(O)C(O)=C1C2=O [Metabolite M6, epimer of tigecycline glucuronide] .
[A] detected

[Q] Name the recorded observed in mouse urine by LC/MS for CN(C)c1cc(NC(=O)CNC(C)(C)C)c(O)c2c1C[C@H]1C[C@H]3C(N(C)C)C(O[C@@H]4O[C@H](C(=O)O)[C@@H](O)[C@H](O)[C@H]4O)=C(C(N)=O)C(=O)[C@@]3(O)C(O)=C1C2=O (stereo in doubt) [Metabolite M7, tigecycline glucuronide] .
[A] detected

###

Entries annotated with measured Relative Distribution (%) of radioactivity in extracted fecal homogenate
Conditions: male, human, in vivo, 32 h
Reply numerically in %, unit not repeated.

The examples below pair each entry with its known result.
[Q] Name the recorded Relative Distribution (%) of radioactivity in extracted fecal homogenate for CN(C)c1cc(NC(=O)CNC(C)(C)C)c(O)c2c1C[C@H]1C[C@H]3[C@H](N(C)C)C(O)=C(C(N)=O)C(=O)[C@@]3(O)C(O)=C1C2=O .
[A] 50.7

[Q] Name the recorded Relative Distribution (%) of radioactivity in extracted fecal homogenate for CC(C)(C)NCC(=O)O [Metabolite M3a, t-butylaminoacetic acid] .
[A] 4.2

[Q] Name the recorded Relative Distribution (%) of radioactivity in extracted fecal homogenate for CN(C)c1cc(NC(=O)CNC(C)(C)C)c(O)c2c1C[C@H]1C[C@H]3C(N(C)C)C(O[C@@H]4O[C@H](C(=O)O)[C@@H](O)[C@H](O)[C@H]4O)=C(C(N)=O)C(=O)[C@@]3(O)C(O)=C1C2=O (stereo in doubt) [Metabolite M7, tigecycline glucuronide] .
[A] 10.4

Turning now to a further record.
[Q] Name the recorded Relative Distribution (%) of radioactivity in extracted fecal homogenate for CN(C)c1cc(NC(=O)CNC(C)(C)C)c(O)c2c1C[C@H]1C[C@H]3[C@@H](N(C)C)C(O[C@@H]4O[C@H](C(=O)O)[C@@H](O)[C@H](O)[C@H]4O)=C(C(N)=O)C(=O)[C@@]3(O)C(O)=C1C2=O [Metabolite M6, epimer of tigecycline glucuronide] .
[A] 3.0

###

Entries annotated with measured Relative Distribution (%) of radioactivity in extracted fecal homogenate
Conditions: male, human, in vivo, 25.2 h
Reply numerically in %, unit not repeated.

The examples below pair each entry with its known result.
[Q] Name the recorded Relative Distribution (%) of radioactivity in extracted fecal homogenate for CN(C)c1cc(NC(=O)CNC(C)(C)C)c(O)c2c1C[C@H]1C[C@H]3[C@H](N(C)C)C(O)=C(C(N)=O)C(=O)[C@@]3(O)C(O)=C1C2=O .
[A] 39.9

[Q] Name the recorded Relative Distribution (%) of radioactivity in extracted fecal homogenate for CC(C)(C)NCC(=O)O [Metabolite M3a, t-butylaminoacetic acid] .
[A] 7.5

[Q] Name the recorded Relative Distribution (%) of radioactivity in extracted fecal homogenate for CN(C)c1cc(NC(=O)CNC(C)(C)C)c(O)c2c1C[C@H]1C[C@H]3C(N(C)C)C(O[C@@H]4O[C@H](C(=O)O)[C@@H](O)[C@H](O)[C@H]4O)=C(C(N)=O)C(=O)[C@@]3(O)C(O)=C1C2=O (stereo in doubt) [Metabolite M7, tigecycline glucuronide] .
[A] 10.4

Turning now to a further record.
[Q] Name the recorded Relative Distribution (%) of radioactivity in extracted fecal homogenate for CN(C)c1cc(NC(=O)CNC(C)(C)C)c(O)c2c1C[C@H]1C[C@H]3[C@@H](N(C)C)C(O[C@@H]4O[C@H](C(=O)O)[C@@H](O)[C@H](O)[C@H]4O)=C(C(N)=O)C(=O)[C@@]3(O)C(O)=C1C2=O [Metabolite M6, epimer of tigecycline glucuronide] .
[A] 4.1
